Test: yeast display, Sf9 membrane polyspecificity reagent, FACS + sequencing; frameworks hold sequencing errors
EXPERIMENTAL ENDPOINT: polyreactivity (PSR sort gate)

{"SEQUENCE DATA": "QDQLVESGGGLVQAGCSLRFTCAACGRIFHYYAMGWYRQAPGKERELVAAITSSRGSTYYADSVKGRFTISRDNAKKTGYVQMNSLQPEDTAVYYCAAGLIVGRFVRYDYWGQGTHVTVSS", "EXPERIMENTAL ENDPOINT": "polyreactivity (PSR sort gate)", "VALUE MEASURED": "high polyreactivity"}
{"SEQUENCE DATA": "QVQLVESGGGLVQAGGSLRLSCAASGFNFSLNAMGWYRQAPGKERELVAAISRSGGRTYYADSVKGRFTISRDNAKNTVYLQMNSLKPEDTAVYYCAAVPITWYAYDYWGQGTQVTVSS", "EXPERIMENTAL ENDPOINT": "polyreactivity (PSR sort gate)", "VALUE MEASURED": "high polyreactivity"}
